meta.source: patent US8772509B2

target: mAChR M1 (UniProt P08482); assay: mAChR M1 cell-based functional assay (calcium mobilization, Fluo-4, FDSS); conditions: maximal calcium flux response from curve fit or response at 30 μM compound, as % of the EC80 ACh response
Entries and their Efficacy (% ACh maximum at 30 μM) values follow.
Provide the reading as a plain figure in %.

A selection of reference data follows.
compound="O=C(CS(=O)(=O)c1cn(Cc2cccc(Br)c2)c2cc(F)cc(F)c12)NCc1ccccn1 [compound 39]" target_under_test="mAChR M1 (UniProt P08482)" data_value=34
compound="O=C(CS(=O)(=O)c1cn(Cc2cccc(-c3cccnc3Cl)c2)c2cc(F)cc(F)c12)Nc1ccccn1 [compound 11]" target_under_test="mAChR M1 (UniProt P08482)" data_value=43
compound="O=C(CS(=O)(=O)c1cn(Cc2cccc(-c3ccnc(F)c3)c2)c2cc(F)cc(F)c12)Nc1ccccn1 [compound 20]" target_under_test="mAChR M1 (UniProt P08482)" data_value=36
compound="Cc1cc(NC(=O)CS(=O)(=O)c2cn(Cc3cccc(-c4cn[nH]c4)c3)c3ccccc23)no1 [compound 5]" target_under_test="mAChR M1 (UniProt P08482)" data_value=90

Fill in Efficacy (% ACh maximum at 30 μM) for record O=C(CS(=O)(=O)c1cn(Cc2cccc(Br)c2)c2cc(F)cc(F)c12)Nc1noc2ccccc12 [compound 21]
72

Tell me Efficacy (% ACh maximum at 30 μM) reported for O=C(CS(=O)(=O)c1cn(Cc2cccc(Br)c2)c2cc(F)cc(F)c12)Nc1nc2ccccc2o1 [compound 9]
44

Input COc1cccc(Cn2cc(S(=O)(=O)CC(=O)Nc3cc(C)on3)c3ccccc32)c1 [compound 33] , output reported Efficacy (% ACh maximum at 30 μM).
79

Give the reported value of Efficacy (% ACh maximum at 30 μM) for this record: O=C(CS(=O)(=O)c1cn(Cc2cccc(Br)c2)c2cc(F)cc(F)c12)Nc1cccnn1 [compound 7]
63

// fetch Efficacy (% ACh maximum at 30 μM) given entry O=C(CS(=O)(=O)c1cn(Cc2cccc(-c3ccncc3)c2)c2cc(F)cc(F)c12)Nc1ccccn1 [compound 14]
55

Give Efficacy (% ACh maximum at 30 μM) for O=C(CS(=O)(=O)c1cn(Cc2cccc(Br)c2)c2cc(F)cc(F)c12)Nc1cncs1 [compound 38]
49

Fill in Efficacy (% ACh maximum at 30 μM) for record Cc1cc(NC(=O)CS(=O)(=O)c2cn(Cc3cccc(-c4cnn(C)c4)c3)c3ccccc23)no1 [compound 12]
95

###

molecular target: UniProt:P08482; assay: mAChR M1 cell-based functional assay (calcium mobilization, Fluo-4, FDSS); conditions: maximal calcium flux response from curve fit or response at 30 μM compound, as % of the EC80 ACh response
# label = True if Efficacy (% ACh maximum at 30 μM) >= 60% else False

molecule="Cc1noc(C)c1-c1cccc(Cn2cc(S(=O)(=O)CC(=O)Nc3ccccn3)c3c(F)cc(F)cc32)c1 [compound 17]" label_class=False

Say whether [N-]=[N+]=Nc1cccc(Cn2cc(S(=O)(=O)CC(=O)Nc3ccccn3)c3c(F)cc(F)cc32)c1 [compound 13] shows Efficacy (% ACh maximum at 30 μM) of 60% or more.
False

Is it the case that O=C(CS(=O)(=O)c1cn(Cc2cccc(-c3cccnc3)c2)c2cc(F)cc(F)c12)Nc1ccccn1 [compound 25] has Efficacy (% ACh maximum at 30 μM) reaching or exceeding 60%?
False

Kindly determine if Efficacy (% ACh maximum at 30 μM) recorded for Cc1cc(NC(=O)CS(=O)(=O)c2cn(Cc3cccc(-c4ccncc4)c3)c3cc(F)cc(F)c23)no1 [compound 2] is above or exactly 60%.
True

Could you please find out whether Nc1cccc(Cn2cc(S(=O)(=O)CC(=O)Nc3ccccn3)c3c(F)cc(F)cc32)c1 [compound 31] has Efficacy (% ACh maximum at 30 μM) that meets 60% or exceeds it?
True

Reported Efficacy (% ACh maximum at 30 μM) at or above 60%? O=C(CS(=O)(=O)c1cn(Cc2cccc(-n3ccnn3)c2)c2cc(F)cc(F)c12)Nc1ccccn1 [compound 10]
True
